# Tested on: T1, porcine pancreatic elastase (porcine, UniProt P00772 27-266)
# T1 construct: substrate AAApNA
# T1 sequence (P00772 27-266 limits assumed): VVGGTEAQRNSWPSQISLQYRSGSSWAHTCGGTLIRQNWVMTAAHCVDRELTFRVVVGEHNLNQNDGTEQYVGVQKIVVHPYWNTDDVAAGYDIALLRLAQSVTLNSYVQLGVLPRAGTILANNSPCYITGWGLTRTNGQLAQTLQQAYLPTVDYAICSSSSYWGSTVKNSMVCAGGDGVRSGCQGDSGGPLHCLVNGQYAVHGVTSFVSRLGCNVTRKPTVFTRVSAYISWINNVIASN
# Protocol notes: elastase inhibition, AAApNA substrate, OD405
Bridge positions count the residues as written; N and C are the ends. Square brackets hold non-standard residues; d marks the D form. Ends that are not written are not given here. Hyp = O=C(O)[C@@H]1C[C@@H](O)CN1
Outcome measure: IC50 (µM)

LCTASIPPICR (disulfide 2-10 (inferred), disulfide bond between the two Cys) [EC21]: 15.3
ICTASIPPQCQ (disulfide 2-10 (inferred), disulfide bond between the two Cys) [EC19]: 1.14
YCTASIPPQCY (disulfide 2-10 (inferred), disulfide bond between the two Cys) [EC14]: 7.14
ICTASI[Hyp]PICQ (disulfide 2-10 (inferred), disulfide bond between the two Cys) [EC47]: 0.4
MCTASMPPQCH (disulfide 2-10 (inferred), disulfide bond between the two Cys) [EC26]: 23.9

The reported numbers originate from patent US20230416329A1.
